- targetEntity: GST-JAK2(808-1132) (Homo sapiens, UniProt O60674)
- Sequence (O60674 808-1132): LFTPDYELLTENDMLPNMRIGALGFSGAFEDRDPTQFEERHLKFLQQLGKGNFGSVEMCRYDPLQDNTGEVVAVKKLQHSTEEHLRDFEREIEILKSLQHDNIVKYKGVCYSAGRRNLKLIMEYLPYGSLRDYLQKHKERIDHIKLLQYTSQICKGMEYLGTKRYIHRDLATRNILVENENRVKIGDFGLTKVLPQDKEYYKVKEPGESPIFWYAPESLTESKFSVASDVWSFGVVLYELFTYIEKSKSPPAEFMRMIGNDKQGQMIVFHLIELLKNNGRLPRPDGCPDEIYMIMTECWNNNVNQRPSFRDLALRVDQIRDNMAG
observable: pIC50
In plain terms, pIC50 is the concentration in mol/L turned into minus its base-10 logarithm.

These solved cases illustrate the format of a correct answer.
>>> readoutvalue("Cc1cc(Nc2nc3cccc(-c4ccc(S(C)(=O)=O)cc4)c3o2)ccc1N1CCN(CCN(C)C)CC1 [Example 100]")
7.78
>>> readoutvalue("COc1cc(Nc2nc3cccc(-c4ccc(CO)cc4)c3o2)cc(OC)c1OC [Example 143]")
7.78
>>> readoutvalue("COc1cc(Nc2nc3cccc(-c4ccc(CC(=O)N5CCOCC5)cc4)c3o2)cc(OC)c1OC [Example 140]")
8.43

Name the reported pIC50 value associated with the compound Cc1cc(Nc2nc3cccc(-c4ccc(C(=O)N5CCOCC5)c(F)c4)c3o2)ccc1C(=O)N(C)C [Example 78]
8.35

====

observable: melting point

These solved cases illustrate the format of a correct answer.
>>> readoutvalue("COc1cc(Nc2nc3cccc(-c4ccc(N)cc4)c3o2)cc(OC)c1OC")
"192 to 196 °C"
>>> readoutvalue("COc1cc(Nc2nc3cccc(-c4ccn[nH]4)c3o2)cc(OC)c1OC")
"185 to 189 °C"
>>> readoutvalue("CNC(=O)c1cc(-c2cccc3nc(Nc4cc(OC)c(OC)c(OC)c4)oc23)cs1 (hydrate or solvate)")
"260 to 262 °C"
>>> readoutvalue("COc1ccc(-c2cccc3nc(Nc4cc(OC)c(OC)c(OC)c4)oc23)cn1")
"192 to 193 °C"
>>> readoutvalue("COc1cc(Nc2nc3cccc(-c4ccc(C(=O)N(C)C)cc4)c3o2)cc(OC)c1OC")
"> 280 °C"

Name the reported melting point value associated with the compound COc1cc(Nc2nc3cccc(-c4ccc(NC(C)=O)cc4)c3o2)cc(OC)c1OC (hydrate or solvate)
265 to 270 °C

And then COc1cc(Nc2nc3cccc(-c4ccc(NS(C)(=O)=O)cc4)c3o2)cc(OC)c1OC (hydrate or solvate) , what is it?
222 to 225 °C

And then COc1cc(Nc2nc3cccc(-c4ccc(S(C)(=O)=O)cc4)c3o2)cc(OC)c1OC , what is it?
205 to 207 °C

And then COc1cc(Nc2nc3cccc(-c4cccc(N)c4)c3o2)cc(OC)c1OC , what is it?
145 to 170 °C

And then COc1cc(Nc2nc3cccc(-c4ccccc4)c3o2)cc(OC)c1OC , what is it?
182 to 185 °C

And then COc1cc(Nc2nc3cccc(-c4ccc(S(=O)(=O)N5CCOCC5)cc4)c3o2)cc(OC)c1OC , what is it?
201 to 203 °C

And then CNS(=O)(=O)c1ccc(-c2cccc3nc(Nc4cc(OC)c(OC)c(OC)c4)oc23)cc1 , what is it?
260 to 262 °C

====

Observed log10 of IC50 values for GST-JAK2(808-1132) (Homo sapiens, UniProt O60674) are listed in what follows.
Annotation: log10 of IC50, nM basis.

These solved cases illustrate the format of a correct answer.
>>> readoutvalue("Cc1cc(-c2cccc3nc(Nc4cccc(N5CCN(C)CC5)c4)oc23)ccc1C(=O)N1CCOCC1")
1.65
>>> readoutvalue("CC(=O)NC1Cc2ccc(Nc3nc4cccc(-c5ccc(CN6CCS(=O)(=O)CC6)cc5)c4o3)cc2C1 (stereo not drawn)")
1.15

Name the reported log10 of IC50 value associated with the compound CNS(=O)(=O)c1ccc(-c2cccc3nc(Nc4ccc(OC)cc4)oc23)cc1
2.08

And then CN1CCN(c2ccc(Nc3nc4cccc(-c5ccc(CC(=O)N6CCOCC6)cc5)c4o3)cc2)CC1 , what is it?
0.70

And then CS(=O)(=O)Nc1cccc(Nc2nc3cccc(-c4ccc(C(=O)N5CCOCC5)cc4)c3o2)c1 , what is it?
1.70

====

This section presents compounds with their documented melting point values.

These solved cases illustrate the format of a correct answer.
>>> readoutvalue("COc1cc(Nc2nc3cccc(-c4cccnc4)c3o2)cc(OC)c1OC [Example 3]")
"165 to 170 °C"
>>> readoutvalue("COc1cc(Nc2nc3cccc(-c4ccc(C(N)=O)cc4)c3o2)cc(OC)c1OC [Example 16]")
"> 280 °C"
>>> readoutvalue("COc1cc(Nc2nc3cccc(-c4cccc(CN)c4)c3o2)cc(OC)c1OC [Example 32]")
"145 to 150 °C"
>>> readoutvalue("Nc1ccc(-c2cccc3nc(Nc4ccc(N5CCOCC5)cc4)oc23)cc1 [Example 40]")
"241 to 243 °C"
>>> readoutvalue("COc1cc(Nc2nc3cccc(-c4ccc5ncccc5c4)c3o2)cc(OC)c1OC [Example 15]")
"187 to 190 °C"

Name the reported melting point value associated with the compound COc1cc(Nc2nc3cccc(-c4ccc(C#N)cc4)c3o2)cc(OC)c1OC [Example 19]
222 to 223 °C

And then COc1cc(Nc2nc3cccc(-c4cccc(Cl)c4)c3o2)cc(OC)c1OC [Example 9] , what is it?
199 to 201 °C

====

Observed pIC50 values for GST-JAK2(808-1132) (Homo sapiens, UniProt O60674) are listed in what follows.
In plain terms, pIC50 is the concentration in mol/L turned into minus its base-10 logarithm.

>>> readoutvalue("COCCN1CCN(c2ccc(Nc3nc4cccc(-c5cc(F)c(CN6CCS(=O)(=O)CC6)c(F)c5)c4o3)cc2C)CC1 [Example 108]")
7.99
>>> readoutvalue("O=C1CCCN1c1ccc(Nc2nc3cccc(-c4cc(F)c(CN5CCS(=O)(=O)CC5)c(F)c4)c3o2)cc1 [Example 125]")
7.15
>>> readoutvalue("CNC(=O)c1ccc(-c2cccc3nc(Nc4cc(OC)c(OC)c(OC)c4)oc23)cc1 [Example 24]")
7.72
>>> readoutvalue("C[S+]([O-])c1ccc(Nc2nc3cccc(-c4ccc(CC(=O)N5CCOCC5)cc4)c3o2)cc1 (stereo not shown) [Example 135]")
7.74
>>> readoutvalue("CCN(CC)C(=O)c1ccc(Nc2nc3cccc(-c4cc(F)c(CN5CCN(C(C)=O)CC5)c(F)c4)c3o2)cc1C [Example 117]")
7.53
>>> readoutvalue("CC(=O)NC1Cc2ccc(Nc3nc4cccc(-c5ccc(CN6CCOCC6)c(F)c5)c4o3)cc2C1 (stereo not shown) [Example 132]")
7.68

Now look at this one.
Name the reported pIC50 value associated with the molecule COc1cc(Nc2nc3cccc(-c4ccc(C(=O)N5CCOCC5)cc4)c3o2)ccc1C(=O)N(C)C [Example 150]
7.60

====

This section presents compounds with their documented melting point values.

These solved cases illustrate the format of a correct answer.
>>> readoutvalue("Nc1cccc(-c2cccc3nc(Nc4ccc(N5CCOCC5)nc4)oc23)c1")
"235 to 237 °C"
>>> readoutvalue("COc1cc(Nc2nc3cccc(-c4cccc(NC(C)=O)c4)c3o2)cc(OC)c1OC")
"170 to 172 °C"
>>> readoutvalue("COc1cc(Nc2nc3cccc(-c4ccc(CN)cc4)c3o2)cc(OC)c1OC (hydrate or solvate)")
"208 to 211 °C"

Name the reported melting point value associated with the compound COc1cc(Nc2nc3ccnc(-c4ccc(N)cc4)c3o2)cc(OC)c1OC (hydrate or solvate)
148 to 151 °C

And then COc1cccc(-c2cccc3nc(Nc4cc(OC)c(OC)c(OC)c4)oc23)c1 , what is it?
167 to 170 °C

====

Observed IC50 values for GST-JAK2(808-1132) (Homo sapiens, UniProt O60674) are listed in what follows.

>>> readoutvalue("Cc1cc(Nc2nc3cccc(-c4ccc(CC(=O)N5CCS(=O)(=O)CC5)c(F)c4)c3o2)ccc1C(=O)N(C)C [Example 83]")
"< 3 nM"

Name the reported IC50 value associated with the molecule Cc1cc(Nc2nc3cccc(-c4ccc(CN5CCS(=O)(=O)CC5)c(F)c4)c3o2)ccc1C(=O)N(C)C [Example 84]
< 3 nM

And then Cc1cc(Nc2nc3cccc(-c4ccc(CN5CCS(=O)(=O)CC5)cc4)c3o2)ccc1C(=O)N(C)C [Example 79] , what is it?
< 3 nM

====

observable: melting point

These solved cases illustrate the format of a correct answer.
>>> readoutvalue("COc1ccccc1-c1cccc2nc(Nc3cc(OC)c(OC)c(OC)c3)oc12")
"185 to 187 °C"
>>> readoutvalue("COc1cccc(-c2cccc3nc(Nc4ccc(N5CCOCC5)cc4)oc23)c1")
"180 to 182 °C"

Now look at this one.
Name the reported melting point value associated with the compound COc1cc(Nc2nc3cccc(-c4cccc(CNC(C)=O)c4)c3o2)cc(OC)c1OC
203 to 204 °C
